assay: Peptide stability in simulated gastric fluid (SGF); type: in vitro ADME; conditions: pig, simulated gastric fluid (SGF) with porcine pepsin, 1 h, 37 °C, pH 1.2, porcine pepsin 3.2 g/L
READOUT_NAME: remaining at 1 h, 10 µM (%)
Give bare numbers, in %.

Query: // query remaining at 1 h, 10 µM value for entry CC(C)C[C@]1(C)NC(=O)[C@H](Cc2ccc3ccccc3c2)NC(=O)[C@H](Cc2ccc(OCCN)cc2)NC(=O)[C@@H]2CCNC(=O)CC[C@H](NC(=O)[C@H](CO)NC(=O)Cc3ccc(cc3)CNC(=O)CC[C@@H](C(=O)N[C@@H](CCN)C(=O)N(C)[C@@H](Cc3cccnc3)C(N)=O)NC1=O)C(=O)N[C@@H](Cc1c[nH]c3ccccc13)C(=O)N[C@@H](CCC(N)=O)C(=O)N2
Reply: 97
